The entries below are paired with their reported Ki.
Assayed target: human GPR139 receptor (Homo sapiens)
Construct: expressed in transfected cells; host or cells: T-REx-CHO (Thermo Fisher Scientific), doxycycline-induced
Test description: GPR139 Competition Binding (membrane-based, tritium-labeled ligand)
Condition set: T-REx-CHO membranes with human GPR139; 6.5 nM tritium-labeled ligand; 11-point curve, 30 μM maximum concentration; read-out: GPR139 Binding Affinity (pKi) (converted)
Give just the number in nM; leave the unit off.

Please give the measured Ki for this compound: "C[C@H](NC(=O)Cn1nc(C2CC2)c2cnn(-c3ccccc3)c2c1=O)c1ccc(C(F)(F)F)cc1" 105

Please give the measured Ki for this compound: "[2H]C([2H])([2H])c1ccc([C@H](C)NC(=O)Cn2ncc3ccn(C)c3c2=O)cc1" 234

Please give the measured Ki for this compound: "C[C@H](NC(=O)Cn1nc(C2CC2)c2cnn(-c3ccccc3)c2c1=O)c1ccc(OC(F)(F)F)cc1" 224

Please give the measured Ki for this compound: "Cc1ccc([C@H](C)NC(=O)Cn2ncc3ccn(C)c3c2=O)cc1" 195

Please give the measured Ki for this compound: Cc1nn(CC(=O)NC(C)c2ccc3c(c2)CCCO3)c(=O)c2c1c(C)nn2C1CC1 (stereo not shown) 41.7

Please give the measured Ki for this compound: "Cc1nn(CC(=O)N[C@@H](C)c2ccc(C(F)(F)F)cc2)c(=O)c2cnn(C(C)C)c12" 2340

Please give the measured Ki for this compound: "Cc1ccc([C@H](C)NC(=O)Cn2ncc3c(ncn3C)c2=O)cc1" 30200

Please give the measured Ki for this compound: "Cc1ccc([C@H](C)NC(=O)Cn2nc(C(C)C)c3cnn(C(C)(C)C)c3c2=O)cc1" 107

Please give the measured Ki for this compound: "CC(C)c1nn(C)c2cnn(CC(=O)N[C@@H](C)c3ccc(OC(F)(F)F)cc3)c(=O)c12" 126

Please give the measured Ki for this compound: "Cc1ccc([C@H](C)NC(=O)Cn2ncc3c(C)nn(C(C)C)c3c2=O)cc1" 102

Please give the measured Ki for this compound: "Cc1ccc([C@H](C)NC(=O)Cn2ncc3c(c(C(C)C)nn3C)c2=O)cc1" 135

Please give the measured Ki for this compound: "Cc1nn(CC(=O)N[C@@H](C)c2ccc(C(F)(F)F)cn2)c(=O)c2c1c(C)nn2C(C)C" 741

Please give the measured Ki for this compound: "C[C@H](NC(=O)Cn1ncc2c(C3CC3)nn(C)c2c1=O)c1cccc(F)c1" 589

Please give the measured Ki for this compound: "Cc1nn(C2CC2)c2cnn(CC(=O)N[C@H](c3ccccc3)C3CC3)c(=O)c12" 30200

Please give the measured Ki for this compound: "Cc1nn(C)c2c(=O)n(CC(=O)N[C@@H](C)c3ccc(C(F)(F)F)cn3)ncc12" 30200

Please give the measured Ki for this compound: "COc1ccc([C@H](C)NC(=O)Cn2ncc3c(c(C)nn3C3CC3)c2=O)cc1" 1660

* * *

Assayed target: human GPR139 receptor (Homo sapiens)
Construct: expressed in transfected cells; host or cells: T-REx-CHO (Thermo Fisher Scientific), doxycycline-induced
Sequence (Q6DWJ6 1-353): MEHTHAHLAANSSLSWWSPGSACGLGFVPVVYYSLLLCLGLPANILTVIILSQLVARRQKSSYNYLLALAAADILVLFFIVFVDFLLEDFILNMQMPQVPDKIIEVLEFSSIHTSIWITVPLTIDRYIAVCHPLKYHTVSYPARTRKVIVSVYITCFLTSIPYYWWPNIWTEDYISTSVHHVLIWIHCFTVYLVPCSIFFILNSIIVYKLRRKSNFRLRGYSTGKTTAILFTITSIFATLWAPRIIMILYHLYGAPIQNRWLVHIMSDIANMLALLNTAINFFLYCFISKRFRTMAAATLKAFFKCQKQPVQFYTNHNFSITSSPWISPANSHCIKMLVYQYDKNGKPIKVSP
Test description: Measurement of GPR139 Activation Via Calcium Signaling (FLIPR, T-REx-CHO cells)
Assay type: cell-based
Condition set: T-REx-CHO cells stably expressing human GPR139, 11-point dose response, 10 μM maximum concentration, read-out: GPR139 Potency (pEC50) (converted)
Value type: log10 of EC50 (log10 of the value in µM)
Heads up: the numbers are on a log10 scale; they represent EC50 in µM.

Compound: COc1ccc([C@H](C)NC(=O)Cn2ncc3c(c(C)nn3C3CC3)c2=O)cc1 [Example 110]
Assayed target: human GPR139 receptor (Homo sapiens)
Value type: log10 of EC50
Assay value: -1.16

Please give the measured log10 of EC50 for this compound: COc1ccc([C@H](C)NC(=O)Cn2nc(C)c3c(c(C(C)C)nn3C)c2=O)cc1F [Example 10] -1.10

Please give the measured log10 of EC50 for this compound: Cc1nn(CC(=O)N[C@@H](C)c2ccc(OC(F)(F)F)cc2)c(=O)c2cnn(C(C)C)c12 [Example 76] 0.01

Please give the measured log10 of EC50 for this compound: Cc1cc(C)c([C@H](C)NC(=O)Cn2ncc3c(c(C)cn3C3CC3)c2=O)c(C)c1 [Example 64] -0.92

Please give the measured log10 of EC50 for this compound: CC(C)n1nc(C2CC2)c2c(=O)n(CC(=O)N[C@@H](C)c3ccc(OC(F)(F)F)cc3)ncc21 [Example 96] -0.30

Please give the measured log10 of EC50 for this compound: CC(C)n1ncc2c(=O)n(CC(=O)N[C@@H](C)c3ccc(OC(F)(F)F)cc3)ncc21 [Example 87] -0.90

Please give the measured log10 of EC50 for this compound: Cc1ccc([C@H](C)NC(=O)Cn2nc(C)c3cnn(C)c3c2=O)cc1 [Example 39] -1.44

Please give the measured log10 of EC50 for this compound: Cc1ccc([C@H](C)NC(=O)Cn2ncc3ccn(C)c3c2=O)cc1 [Example 162] -1.88
